Below: a set of entries, each annotated with reported OD492 nm.
# Target: T1, HCV Core1-169 recombinant antigen (hepatitis C virus (HCV-1), UniProt P26664 1-169)
# T1 sequence: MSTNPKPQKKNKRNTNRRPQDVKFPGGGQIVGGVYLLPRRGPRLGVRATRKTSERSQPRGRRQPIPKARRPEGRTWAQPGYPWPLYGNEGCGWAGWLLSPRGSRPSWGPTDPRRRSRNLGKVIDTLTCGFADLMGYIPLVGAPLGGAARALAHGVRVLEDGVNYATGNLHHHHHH
# Assay overview: sandwich EIA, 25 ng/ml core1-169; capture mAb 208B-612-226

Binder	Experimental result
208A-207-271 monoclonal antibody (antibody, V domains shown) VH: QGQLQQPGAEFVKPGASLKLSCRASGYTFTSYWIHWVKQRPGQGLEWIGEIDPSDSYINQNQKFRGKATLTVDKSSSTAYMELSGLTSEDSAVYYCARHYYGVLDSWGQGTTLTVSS VL: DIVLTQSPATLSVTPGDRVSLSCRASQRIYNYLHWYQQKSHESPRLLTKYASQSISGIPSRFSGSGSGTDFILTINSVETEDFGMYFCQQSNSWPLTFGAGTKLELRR	0.33 OD492
HCV 208B-1096 monoclonal antibody (antibody, V domains shown) VH: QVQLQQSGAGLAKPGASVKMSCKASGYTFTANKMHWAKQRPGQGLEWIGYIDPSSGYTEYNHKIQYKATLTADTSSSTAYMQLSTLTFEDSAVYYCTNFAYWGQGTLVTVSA VL: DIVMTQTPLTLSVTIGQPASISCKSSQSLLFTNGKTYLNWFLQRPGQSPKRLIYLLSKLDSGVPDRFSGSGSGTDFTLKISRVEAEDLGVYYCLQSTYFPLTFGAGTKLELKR	0.24 OD492
HCV 208A-293 monoclonal antibody (antibody, V domains shown) VH: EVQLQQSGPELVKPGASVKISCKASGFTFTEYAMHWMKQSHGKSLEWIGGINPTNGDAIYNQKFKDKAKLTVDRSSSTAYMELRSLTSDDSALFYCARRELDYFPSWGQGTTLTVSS VL: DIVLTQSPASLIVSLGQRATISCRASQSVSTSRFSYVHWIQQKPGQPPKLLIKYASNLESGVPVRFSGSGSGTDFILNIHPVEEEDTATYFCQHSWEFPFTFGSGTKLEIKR	0.37 OD492

Which OD492 nm is listed for HCV 208A-692 monoclonal antibody (antibody, V domains shown) VH: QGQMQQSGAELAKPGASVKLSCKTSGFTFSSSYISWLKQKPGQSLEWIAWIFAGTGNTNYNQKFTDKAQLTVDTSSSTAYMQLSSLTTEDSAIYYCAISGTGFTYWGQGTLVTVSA VL: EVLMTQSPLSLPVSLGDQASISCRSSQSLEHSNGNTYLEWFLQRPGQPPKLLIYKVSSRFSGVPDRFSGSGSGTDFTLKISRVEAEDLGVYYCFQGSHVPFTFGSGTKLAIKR ?
0.37 OD492
